All figures here come from PubChem BioAssay (EPA / NIEHS).

Target: rat CYP2A1, Cyp2a1 (gene 24894) (UniProt P11711)
Sequence (P11711 whole entry, looked up): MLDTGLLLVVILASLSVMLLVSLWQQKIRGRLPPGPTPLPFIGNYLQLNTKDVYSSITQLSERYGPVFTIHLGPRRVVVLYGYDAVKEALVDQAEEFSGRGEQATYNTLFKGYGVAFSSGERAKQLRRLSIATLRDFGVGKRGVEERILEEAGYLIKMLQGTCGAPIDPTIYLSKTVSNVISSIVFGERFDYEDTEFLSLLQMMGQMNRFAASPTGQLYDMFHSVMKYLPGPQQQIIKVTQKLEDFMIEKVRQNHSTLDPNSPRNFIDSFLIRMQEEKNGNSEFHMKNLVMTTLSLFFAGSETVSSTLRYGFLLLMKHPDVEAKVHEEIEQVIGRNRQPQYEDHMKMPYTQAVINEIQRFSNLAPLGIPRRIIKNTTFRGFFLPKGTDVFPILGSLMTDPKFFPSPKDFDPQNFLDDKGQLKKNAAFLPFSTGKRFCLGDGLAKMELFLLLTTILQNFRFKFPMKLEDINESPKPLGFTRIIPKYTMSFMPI
Assay: NVS_ADME_rCYP2A1: NovaScreen (NVS) CYP450-related Enzyme Activity (ADME) Assay for rat CYP2A1 (AID 2283114)
Method: NVS_ADME_rCYP2A1 is a biochemical, single-readout assay that uses extracted gene-proteins in a cell-free assay. Measurements were taken 0.75 hour after chemical dosing in a 96-well plate.NVS_ADME_rCYP2A1 is one of one assay component(s) measured or calculated from the NVS_ADME_rCYP2A1 assay. […] This assay endpoint, NVS_ADME_rCYP2A1, was analyzed in the positive analysis fitting direction relative to Acetonitrile as the negative control and baseline of activity. […]
The source made the active and inactive calls. How the source made its calls: active means hit-call score of the fitted dose curve at least 0.9, where 1 is the maximum; inactive means score below 0.9.
A correct response names exactly one class from True for active, False for inactive

Test call for this compound, please: CCCCOCCOCCOCc1cc2c(cc1CCC)OCO2
False

Test call for this compound, please: C=CCOC(Cn1ccnc1)c1ccc(Cl)cc1Cl (stereo unspecified)
True

Test call for this compound, please: C#CCOC(=O)[C@@H](C)Oc1ccc(Oc2ncc(Cl)cc2F)cc1
False

Test call for this compound, please: Oc1ccc(C(c2ccc(O)cc2)C(Cl)(Cl)Cl)cc1
True

Test call for this compound, please: CN(C)C(=O)Nc1ccc(Cl)c(Cl)c1
True

Test call for this compound, please: COC(=O)c1ccccc1C(=O)O
False

====

Experiment: APR_HepG2_MitoMass_72hr: Apredica 72-hour HepG2 Assay for Mitochondrial Mass (AID 2282924);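 further: MitoTracker Red CMXRos stain intensity per cell imaged as mitochondrial mass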
Conditions: high-content imaging, actives raise or lower the signal
Activity calls are given as the source filed them. How the source made its calls: active means hit-call score of the fitted dose curve at least 0.9, where 1 is the maximum; inactive means score below 0.9.
RECORDED METRIC: outcome

CCCCC(CC)CN1C(=O)C2C3C=CC(C3)C2C1=O (centres undefined)    inactive
CCOC(=O)COc1cc(-n2ncc(C(F)(F)F)c(C)c2=O)c(F)cc1Cl    inactive
CCOC(=O)c1ccc(O)cc1    inactive
CCNc1nc(N)nc(Cl)n1    inactive

====

Read-out: Macrophage colony-stimulating factor (MCSF), CSF1 (gene 1435)
Assay: BSK_hDFCGF_MCSF: BioMAP Diversity Plus: hDFCGF Assay for Macrophage colony-stimulating factor (MCSF) Biomarker Activity (AID 2283060)
Conditions: primary human foreskin fibroblasts; actives raise or lower the signal
Active and inactive are the calls of the source. The calls were made as follows: active = hit-call score of the fitted dose curve at least 0.9, where 1 is the maximum; inactive = score below 0.9.
A correct response names exactly one class from YES (active), NO (inactive)

Test call for this molecule, please: CCSC(=O)N(CC(C)C)CC(C)C
NO

Test call for this molecule, please: Oc1ccc(C(c2ccc(O)cc2)C(Cl)(Cl)Cl)cc1
YES

Test call for this molecule, please: CCC(C)OC(=O)N1CCCCC1CCO (centres undefined)
NO

Test call for this molecule, please: CC(C)(C)[C@@H](O)[C@@H](Cc1ccc(Cl)cc1)n1cncn1
NO

Test call for this molecule, please: OB(O)O
NO

Test call for this molecule, please: CCOC(=O)c1ccc(O)cc1
NO

Test call for this molecule, please: CCC(O)=C1C(=O)CC(C(=O)O)CC1=O (centres undefined)
NO

Test call for this molecule, please: CSC(=O)c1cccc2nnsc12
NO

Test call for this molecule, please: CCOC(=O)C(C)Oc1ccc(Oc2cnc3cc(Cl)ccc3n2)cc1 (centres undefined)
NO

Test call for this molecule, please: C#C[C@]1(O)CC[C@H]2[C@@H]3CCC4=CC(=O)CC[C@@H]4[C@H]3CC[C@@]21CC
NO

Test call for this molecule, please: CC1(C)C(C=C(Cl)Cl)C1C(=O)OCc1cccc(Oc2ccccc2)c1 (centres undefined)
NO

Test call for this molecule, please: COC(=O)c1c(Cl)nn(C)c1S(=O)(=O)NC(=O)Nc1nc(OC)cc(OC)n1
NO

Test call for this molecule, please: O=C(c1ccc(O)cc1O)c1ccc(O)cc1O
NO

Test call for this molecule, please: O=C(Nc1ccc([N+](=O)[O-])cc1Cl)c1cc(Cl)ccc1O
YES
